Values compiled from patent US20230391772A1.

Entries and their measured IC50 follow.
measurement target: KRAS(G12C) (Homo sapiens, UniProt P01116, G12C)
Sequence (P01116 1-188 isoform P01116-2 G12C): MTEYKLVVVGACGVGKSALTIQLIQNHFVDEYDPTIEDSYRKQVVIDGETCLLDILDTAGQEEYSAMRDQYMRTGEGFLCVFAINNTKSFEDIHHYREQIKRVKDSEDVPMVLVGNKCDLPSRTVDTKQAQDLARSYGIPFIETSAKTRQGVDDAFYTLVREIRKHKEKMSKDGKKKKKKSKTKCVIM
experiment notes: KRAS(G12C)/SOS1 homogeneous time-resolved fluorescence (HTRF) assay
condition description: absence of GTP, 4° C. for 3 hr, read-out: KRAS (G12C) binding
Procedure: KRAS(G12C)/SOS1 Homogeneous Time-Resolved Fluorescence (HTRF) Assay Binding of test compounds to KRAS(G12C) protein, which in turn blocks KRAS(G12C) interaction with the SOS1 protein, was measured in the absences of GTP by homogeneous time-resolved fluorescence (HTRF) using the KRAS-G12C/SOS1 Binding Assay Kit (Cisbio, #63ADK000CB16PEG), following the manufacturer's instructions, except as noted. 3-fold serial dilutions of each test compound were prepared ranging from M to 1.02 nM. […]

compound: C=CC(=O)N1CCN(c2nc(OC[C@@H]3CN(C(=O)C4CCN(Cc5ccc(-n6c(O)nnc6-c6cc(C)c(O)cc6O)cc5)CC4)CCN3C)nc3c2CCN(c2cccc4cccc(Cl)c24)C3)C[C@@H]1CC#N [Compound 203, trifluoroacetic acid]
IC50: 0.1 to 1 µM

Consider the compound C=CC(=O)N1CCN(c2nc(OC[C@@H]3CC[C@H](CN4CCN(Cc5ccc(-n6c(O)nnc6-c6cc(C(C)C)c(O)cc6O)cc5)CC4)N3C)nc3c2CCN(c2cccc4cccc(Cl)c24)C3)C[C@@H]1CC#N [Compound 326] and give its recorded IC50.
< 0.1 µM
